- System: Rattus norvegicus
- protocol_text: Toxicity in diet-induced hypercholesteremic rat model assessed as increase in body weight at 50 mg/kg, po relative to control
- Format: organism-based
- Parameters: dose 50 mg/kg, route oral
- measurement_parameters: in vivo
quantity_kind: Activity

Below are worked cases with known answers.
• CS(=O)(=O)Nc1ccc(OC23CC4CC(CC(C4)C2)C3)cc1 = > 63%
• CCNc1ccc(OC23CC4CC(CC(C4)C2)C3)cc1.Cl = > 63%
• Cc1cc(OC23CC4CC(CC(C4)C2)C3)cc(C)c1N1CCCC1 = > 63%
• c1cc(N2CCCC2)ccc1SC12CC3CC(CC(C3)C1)C2 = > 63%
• Nc1ccc(O)cc1 = > 63%

Report Activity for each item below.
1. Nc1ccc(OC23CC4CC(CC(C4)C2)C3)cc1F
2. Nc1ccc(OC23CC4CC(CC(C4)C2)C3)c(F)c1
3. CN(C)c1ccc(OC23CC4CC(CC(C4)C2)C3)cc1.Cl
4. CN(c1ccc(N2CCCC2)cc1)C12CC3CC(CC(C3)C1)C2

stdout:
1: > 63%; 2: > 63%; 3: > 63%; 4: < 63%

====

- System: Rattus norvegicus
- protocol_text: Toxicity in diet-induced hypercholesteremic rat model assessed as increase in body weight at 50 mg/kg, po relative to control
- Type: organism-based
- Parameters: dose 50 mg/kg, route oral
- measurement_parameters: in vivo
quantity_kind: Activity

Guide cases for Activity, answers given:
• Nc1ccc(OC23CCC(CC2)CC3)cc1 = > 63%
• CSCc1cc(OC23CC4CC(CC(C4)C2)C3)ccc1N = > 63%

Here is another molecule to look at.
stdin: Can you share its Activity? I mean this molecule: Nc1ccc(S(=O)(=O)C23CC4CC(CC(C4)C2)C3)cc1
stdout: > 63%
